Here the recorded Mean (relative fluorescence intensity), 293-TGFβ Res reporter cells is given for each entry.
# Measurement target: TSP-1 protein expressed by PMA-differentiated THP-1 macrophage-like cells (UniProt P07996 19-1170)
# Sequence (P07996 19-1170 limits assumed): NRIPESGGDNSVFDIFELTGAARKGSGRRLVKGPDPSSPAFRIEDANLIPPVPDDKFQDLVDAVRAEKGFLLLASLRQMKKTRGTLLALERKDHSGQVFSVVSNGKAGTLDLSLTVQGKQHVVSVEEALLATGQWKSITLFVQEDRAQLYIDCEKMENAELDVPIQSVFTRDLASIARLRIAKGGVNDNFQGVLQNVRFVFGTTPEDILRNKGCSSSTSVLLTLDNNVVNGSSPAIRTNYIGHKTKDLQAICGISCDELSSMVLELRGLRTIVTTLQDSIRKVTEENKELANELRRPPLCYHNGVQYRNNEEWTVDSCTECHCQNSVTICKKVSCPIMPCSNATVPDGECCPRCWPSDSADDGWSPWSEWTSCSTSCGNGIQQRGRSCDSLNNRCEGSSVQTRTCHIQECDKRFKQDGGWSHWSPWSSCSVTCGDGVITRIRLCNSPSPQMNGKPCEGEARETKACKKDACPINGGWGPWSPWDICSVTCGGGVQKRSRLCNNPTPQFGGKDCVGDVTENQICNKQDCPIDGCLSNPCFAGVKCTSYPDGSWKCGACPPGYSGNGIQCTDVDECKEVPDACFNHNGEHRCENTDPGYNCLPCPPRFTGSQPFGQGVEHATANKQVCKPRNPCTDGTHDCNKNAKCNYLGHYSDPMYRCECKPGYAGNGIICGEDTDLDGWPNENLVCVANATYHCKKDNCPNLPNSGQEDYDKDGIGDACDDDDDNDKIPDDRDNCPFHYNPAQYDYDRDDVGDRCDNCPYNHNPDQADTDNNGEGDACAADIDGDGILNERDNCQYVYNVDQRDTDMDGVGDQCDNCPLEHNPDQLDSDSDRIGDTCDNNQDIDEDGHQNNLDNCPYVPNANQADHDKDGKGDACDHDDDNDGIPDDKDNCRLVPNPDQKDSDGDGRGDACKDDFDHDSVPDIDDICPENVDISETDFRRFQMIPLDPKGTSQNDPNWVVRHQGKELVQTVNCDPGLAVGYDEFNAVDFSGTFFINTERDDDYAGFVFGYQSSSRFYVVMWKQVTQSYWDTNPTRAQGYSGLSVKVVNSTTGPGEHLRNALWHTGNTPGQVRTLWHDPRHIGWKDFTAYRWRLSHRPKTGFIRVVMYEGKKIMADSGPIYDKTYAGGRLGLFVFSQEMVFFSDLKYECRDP
# Protocol: cell-based or functional assay
Bridge positions count the residues as written; N and C are the ends. Ends that are not written are not given here.
Endpoint name: Mean (relative fluorescence intensity), 293-TGFβ Res reporter cells

Binder | Value reported
TQDPEDN (Head-to-tail cyclization) [SEQ ID NO: 41] | 0.62 ratio to negative control
Ac-TQDAED-NH2 [SEQ ID NO: 04] | 0.77 ratio to negative control
QDAEDNT (Head-to-tail cyclization, cyclic peptide; also called QDAEDNT; cyclo[Gln-Asp-Ala-Glu-Asp-Asn-Thr]) [SEQ ID NO: 45] | 0.52 ratio to negative control
TQDPEDNTAS (Head-to-tail cyclization, cyclic peptide) [SEQ ID NO: 46] | 0.69 ratio to negative control
Ac-TQDAEDN-NH2 (also called TQDAEDN) [SEQ ID NO: 06] | 0.65 ratio to negative control
Ac-TQDAEDNTVSFLQ-NH2 [SEQ ID NO: 36] | 0.83 ratio to negative control
TQDAEDNK (lactam 3-8) [SEQ ID NO: 42] | 0.67 ratio to negative control
Ac-TQDAEDNTASF-NH2 [SEQ ID NO: 31] | 0.79 ratio to negative control

Where do the numbers come from? From patent US20250388623A1.
